# TARGET_OR_TEST_SYSTEM: Follistatin (Homo sapiens)
# PROTOCOL_DETAILS: follistatin binders on small-molecule microarrays, primary screen, biochemical, small-molecule microarray, 635/667 nm fluorescence (AID 1132)
# CONDITIONS_USED: FST binding, 635 nm fluorescence, higher = more signal

COMPOUND	TARGET_OR_TEST_SYSTEM	composite z-score
O=C1c2ccccc2[C@](Cc2ccccc2I)(C(=O)NCC(F)(F)F)[C@H](c2ccc(CO)cc2)N1Cc1ccccc1C(F)(F)F	Follistatin (Homo sapiens)	0.678
COCCCNC(=O)[C@@H]1c2ccccc2C(=O)N(CC23CC4CC(CC(C4)C2)C3)[C@H]1c1ccc(CO)cc1	Follistatin (Homo sapiens)	1.39
CN1C(=O)C2C=CC(C(O)c3ccc(N(C)C)cc3)N(Nc3ccc([N+](=O)[O-])cc3[N+](=O)[O-])C2C1=O (configuration not stated)	Follistatin (Homo sapiens)	1.26
C=CCC(OC(C)=O)[C@@H]1[C@@H](N(Cc2ccc(-c3cccc(C(F)(F)F)c3)o2)C(=O)Cc2ccc(F)cc2)c2cc(OCCCO)ccc2N1C(=O)c1ccc(-c2ccccc2)cc1 (some centres not stated)	Follistatin (Homo sapiens)	0.16
C=C(CCCC)/C(=C/C[C@@H](OC(=O)c1ccncc1)c1cccc(OCCO)c1)c1cc(C(=O)OC)ccc1OC	Follistatin (Homo sapiens)	1.12
C=C(/C(=C/C[C@@H](OC(=O)c1ccncc1)c1ccc(CO)o1)c1cnc2ccccc2c1)C(C)C	Follistatin (Homo sapiens)	1.32
O=C1O[C@H](c2ccccc2)[C@H](c2ccccc2)N2[C@H]1[C@@H](C(=O)Nc1nc3ccccc3s1)[C@]1(C(=O)Nc3ccc(C#CC4(O)CCCCCC4)cc31)[C@H]2c1ccc(O)cc1	Follistatin (Homo sapiens)	1.29

FYI, the data here is from PubChem BioAssay.
